- EXPERIMENTAL_SYSTEM: Human DGAT1 (Homo sapiens)
- Construct: my translation of the primer: M-G-DYKDDDD-GDRGSSRRR) (N); made in house; host or cells: Sf9 insect cells (recombinant baculovirus BAC-DGAT1, pFASTBAC1); microsome fraction
- PROTOCOL_SUMMARY: DGAT inhibitory activity: [14C]-triglyceride synthesis by DGAT1 high expression Sf9 microsome
- Type: biochemical
- CONDITION_SET: Table 2, 25 μM dioleoylglycerol, 25 μM [14C]-Oleoyl-CoA, 32° C., 15 min, read-out: DGAT inhibitory activity (according to IC50)
RECORDED_ENDPOINT: IC50

Data request: Please report IC50 for the following molecule: `O=C(CCC(=O)c1ccc2c(c1)CCO2)Nc1cc(-c2ccccc2CO)cc(-c2ccccc2)n1`
Data returned: 50 to 500 nM

Data request: Identify IC50 associated with the molecule `CCCCCC/C=C/c1cc(NC(=O)CCC(=O)c2ccc(OCC)c(OCC)c2)nc(-c2ccccc2)c1`
Data returned: 500 to 10000 nM

Data request: Return IC50 (reported value) for this molecule: `COc1cc(-c2cc(NC(=O)CCC(=O)c3ccc4c(c3)CCO4)nc(-c3ccccc3)c2)cc(OC)c1OC`
Data returned: 500 to 10000 nM

Data request: Look up and state reported IC50 for `CCOc1ccc(C(=O)CCC(=O)Nc2cc(-c3cccc(CCCO)c3)cc(-c3ccccc3)n2)cc1OCC`
Data returned: 50 to 500 nM

Data request: Dear colleague, please send me the reported IC50 for `COC(=O)CCc1cccc(-c2cc(NC(=O)CCC(=O)c3ccc4c(c3)CCO4)nc(-c3ccccc3)c2)c1` when you can.
Data returned: 10 to 50 nM

----------
Form field: pIC50 (one value per entry).
- EXPERIMENTAL_SYSTEM: Human DGAT1 (Homo sapiens, UniProt O75907)
- Construct: my translation of the primer: M-G-DYKDDDD-GDRGSSRRR) (N); made in house; host or cells: Sf9 insect cells (recombinant baculovirus BAC-DGAT1, pFASTBAC1); microsome fraction
- PROTOCOL_SUMMARY: DGAT inhibitory activity: [14C]-triglyceride synthesis by DGAT1 high expression Sf9 microsome
- Type: biochemical
- CONDITION_SET: Table 2, 25 μM dioleoylglycerol, 25 μM [14C]-Oleoyl-CoA, 32° C., 15 min, read-out: DGAT inhibitory activity (according to IC50)
pIC50: −log10 of the molar value.

Solved cases below.
TEST_SMILES: CCOc1ccc(C(=O)CCC(=O)Nc2cc(-c3ccc(N4CCOCC4)cc3)cc(-c3ccccc3)n2)cc1OCC
pIC50: 5.00 to 6.30
//
TEST_SMILES: CCOc1ccc(C(=O)CCC(=O)Nc2cc(-c3ccc(C(N)=O)cc3)cc(-c3ccccc3)n2)cc1OCC
pIC50: 7.30 to 8.00
//
TEST_SMILES: O=C(CCC(=O)c1ccc2c(c1)CCO2)Nc1cc(-c2cccc(OC(F)(F)F)c2)cc(-c2ccccc2)n1
pIC50: 6.30 to 7.30

The record that follows has no pIC50 shown yet.
Data request: Supply reported pIC50 belonging to this molecule: `CCOc1ccc(C(=O)CCC(=O)Nc2nc3ccccc3c(-c3ccccc3)c2C)cc1OCC`
Data returned: 6.30 to 7.30

----------
- EXPERIMENTAL_SYSTEM: Human DGAT1 (Homo sapiens)
- Construct: my translation of the primer: M-G-DYKDDDD-GDRGSSRRR) (N); made in house; host or cells: Sf9 insect cells (recombinant baculovirus BAC-DGAT1, pFASTBAC1); microsome fraction
- PROTOCOL_SUMMARY: DGAT inhibitory activity: [14C]-triglyceride synthesis by DGAT1 high expression Sf9 microsome
- Type: biochemical
- CONDITION_SET: Table 1, 25 μM dioleoylglycerol, 25 μM [14C]-Oleoyl-CoA, 32° C., 15 min, read-out: DGAT inhibitory activity (according to IC50)
RECORDED_ENDPOINT: IC50

COMPOUND: CCOc1ccc(C(=O)CCC(=O)Nc2cc(-c3ccccc3)c(CC3CCCCC3)s2)cc1OCC
RECORDED_ENDPOINT: IC50
EXPERIMENTAL_RESULT: 0.05 to 0.5 µM

Data request: For the compound `CCOc1ccc(C(=O)CCC(=O)Nc2nc(-c3ccccc3)c(Cc3ccccc3)s2)cc1Br` , give its reported IC50.
Data returned: ≤ 0.01 µM

Data request: Quote IC50 reported for `CCOc1ccc(C(=O)CCC(=O)Nc2cc(-c3ccccc3)cc(-c3ccccc3)c2)cc1OCC` please.
Data returned: 0.05 to 0.5 µM

Data request: Tell me measured IC50 for `O=C(CCC(=O)c1ccc2c(c1)CCO2)Nc1cc(-c2ccccc2)c(Cc2ccccc2)s1` please.
Data returned: 0.01 to 0.05 µM

Data request: Identify measured IC50 associated with `O=C(CCC(=O)c1ccc(O)cc1)Nc1nc(-c2ccccc2)c(Cc2ccccc2)s1`
Data returned: 0.05 to 0.5 µM

----------
- EXPERIMENTAL_SYSTEM: Human DGAT1 (Homo sapiens, UniProt O75907)
- Construct: my translation of the primer: M-G-DYKDDDD-GDRGSSRRR) (N); made in house; host or cells: Sf9 insect cells (recombinant baculovirus BAC-DGAT1, pFASTBAC1); microsome fraction
- PROTOCOL_SUMMARY: DGAT inhibitory activity: [14C]-triglyceride synthesis by DGAT1 high expression Sf9 microsome
- Assay type: biochemical
- CONDITION_SET: Table 2, 25 μM dioleoylglycerol, 25 μM [14C]-Oleoyl-CoA, 32° C., 15 min, read-out: DGAT inhibitory activity (according to IC50)
RECORDED_ENDPOINT: IC50

Here are 3 compounds together with their reported answers.
TEST_SMILES: CCOc1ccc(C(=O)CCC(=O)Nc2cc(-c3ccccc3C(=O)O)cc(-c3ccccc3)n2)cc1OCC
IC50: 0.5 to 10 µM

TEST_SMILES: CCOc1ccc(C(=O)CCC(=O)Nc2cc(-c3cccc(OC(F)(F)F)c3)cc(-c3ccccc3)n2)cc1OCC
IC50: 0.05 to 0.5 µM

TEST_SMILES: O=C(CCC(=O)c1ccc2c(c1)CCCC2)Nc1cc(-c2ccccc2)cc(-c2ccccc2)n1
IC50: 0.05 to 0.5 µM

Data request: Answer with the recorded IC50 of `CCOc1ccc(C(=O)CCC(=O)Nc2cc(-c3ccc(OCCN4CCOCC4)cc3)c3ccccc3n2)cc1OCC` only.
Data returned: 0.05 to 0.5 µM

Data request: Give the measured IC50 for `CCOc1ccc(C(=O)CCC(=O)Nc2cc(-c3ccccc3)c(Cc3ccccc3)s2)cc1Cl`
Data returned: 0.05 to 0.5 µM

Data request: Fill in reported IC50 for this entry: `CCOc1ccc(C(=O)CCC(=O)Nc2cc(-c3ccc(O)c(OC)c3)cc(-c3ccccc3)n2)cc1OCC`
Data returned: 0.01 to 0.05 µM

Data request: Could you please provide reported IC50 for `CCOc1ccc(C(=O)CCC(=O)Nc2cc(-c3cccc(C(=O)O)c3)cc(-c3ccccc3)n2)cc1OCC` ? Thanks!
Data returned: 0.5 to 10 µM

----------
- EXPERIMENTAL_SYSTEM: Human DGAT1 (Homo sapiens)
- Construct: my translation of the primer: M-G-DYKDDDD-GDRGSSRRR) (N); made in house; host or cells: Sf9 insect cells (recombinant baculovirus BAC-DGAT1, pFASTBAC1); microsome fraction
- Sequence (O75907 1-488): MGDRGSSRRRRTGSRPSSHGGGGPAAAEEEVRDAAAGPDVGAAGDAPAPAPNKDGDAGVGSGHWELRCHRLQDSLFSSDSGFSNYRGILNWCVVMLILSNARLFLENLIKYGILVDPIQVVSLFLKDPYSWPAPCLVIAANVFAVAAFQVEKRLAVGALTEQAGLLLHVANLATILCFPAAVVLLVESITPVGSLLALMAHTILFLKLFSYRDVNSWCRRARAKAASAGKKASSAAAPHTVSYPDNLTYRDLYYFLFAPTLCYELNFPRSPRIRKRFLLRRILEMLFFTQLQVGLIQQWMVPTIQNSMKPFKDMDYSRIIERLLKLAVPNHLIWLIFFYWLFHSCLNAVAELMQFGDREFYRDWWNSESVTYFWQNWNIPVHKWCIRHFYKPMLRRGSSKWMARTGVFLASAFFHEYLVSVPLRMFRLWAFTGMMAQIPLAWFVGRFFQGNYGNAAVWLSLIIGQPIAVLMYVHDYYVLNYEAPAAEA
- PROTOCOL_SUMMARY: DGAT inhibitory activity: [14C]-triglyceride synthesis by DGAT1 high expression Sf9 microsome
- Assay type: biochemical
- CONDITION_SET: Table 1, 25 μM dioleoylglycerol, 25 μM [14C]-Oleoyl-CoA, 32° C., 15 min, read-out: DGAT inhibitory activity (according to IC50)
RECORDED_ENDPOINT: IC50

TEST_SMILES: CCOc1ccc(C(=O)NCCNC(=O)c2cc(-c3ccccc3)n(Cc3ccccc3)c2C)cc1
EXPERIMENTAL_SYSTEM: Human DGAT1 (Homo sapiens)
RECORDED_ENDPOINT: IC50
EXPERIMENTAL_RESULT: 50 to 500 nM
--
TEST_SMILES: CCOc1ccc(C(=O)CCC(=O)Nc2ccc(CCC(=O)O)c(-c3ccccc3)c2)cc1OCC
EXPERIMENTAL_SYSTEM: Human DGAT1 (Homo sapiens)
RECORDED_ENDPOINT: IC50
EXPERIMENTAL_RESULT: 500 to 10000 nM
--
TEST_SMILES: CCOc1cc(C)c(C(=O)CCC(=O)Nc2cc(-c3ccccc3)c(Cc3ccccc3)s2)cc1OCC
EXPERIMENTAL_SYSTEM: Human DGAT1 (Homo sapiens)
RECORDED_ENDPOINT: IC50
EXPERIMENTAL_RESULT: 10 to 50 nM

Okay, next one:
Data request: # return recorded IC50 for input `CCOC(=O)/C=C/c1cc(C(=O)CCC(=O)Nc2nc(-c3ccccc3)c(Cc3ccccc3)s2)ccc1OCC`
Data returned: 10 to 50 nM
